assayed-system: UniProt:P08684
Sequence (P08684 whole entry): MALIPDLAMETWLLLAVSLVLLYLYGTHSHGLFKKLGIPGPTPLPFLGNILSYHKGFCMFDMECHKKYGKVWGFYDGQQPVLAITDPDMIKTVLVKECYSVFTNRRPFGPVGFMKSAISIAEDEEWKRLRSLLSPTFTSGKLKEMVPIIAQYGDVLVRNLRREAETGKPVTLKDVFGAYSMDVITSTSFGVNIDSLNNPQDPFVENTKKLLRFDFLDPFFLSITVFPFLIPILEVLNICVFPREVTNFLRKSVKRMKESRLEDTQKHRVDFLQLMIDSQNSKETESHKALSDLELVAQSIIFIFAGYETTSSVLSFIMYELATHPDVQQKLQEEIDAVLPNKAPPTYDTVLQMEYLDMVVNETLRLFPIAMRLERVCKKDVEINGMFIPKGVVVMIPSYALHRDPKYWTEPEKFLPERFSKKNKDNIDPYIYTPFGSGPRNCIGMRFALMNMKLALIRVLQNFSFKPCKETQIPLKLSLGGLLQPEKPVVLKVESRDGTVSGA
assay-overview: Cytochrome P450 assay (Gentest Kit), CYP3A4
measurement-conditions: human recombinant isoenzyme, Table 1
Hi there, I'd appreciate the recorded pIC50 for every entry that follows.
// pIC50: -log10(molar conc.)

Query: Record request: pIC50 value, item C[C@H](NCc1ccc(OCc2ccccc2F)c(Cc2ccccc2F)c1)C(N)=O [Impurity IId, methanesulfonate]
Response: 7.30

Query: Please do the same for C[C@H](NCc1ccc(OCc2cccc(F)c2)c(Cc2cccc(F)c2)c1)C(N)=O [Impurity IIc, methanesulfonate] as well.
Response: 7.30

----------
Hi there, I'd appreciate the recorded IC50 for every entry that follows.
assayed-system: CYP1A2 (Homo sapiens)
Sequence (P05177 whole entry): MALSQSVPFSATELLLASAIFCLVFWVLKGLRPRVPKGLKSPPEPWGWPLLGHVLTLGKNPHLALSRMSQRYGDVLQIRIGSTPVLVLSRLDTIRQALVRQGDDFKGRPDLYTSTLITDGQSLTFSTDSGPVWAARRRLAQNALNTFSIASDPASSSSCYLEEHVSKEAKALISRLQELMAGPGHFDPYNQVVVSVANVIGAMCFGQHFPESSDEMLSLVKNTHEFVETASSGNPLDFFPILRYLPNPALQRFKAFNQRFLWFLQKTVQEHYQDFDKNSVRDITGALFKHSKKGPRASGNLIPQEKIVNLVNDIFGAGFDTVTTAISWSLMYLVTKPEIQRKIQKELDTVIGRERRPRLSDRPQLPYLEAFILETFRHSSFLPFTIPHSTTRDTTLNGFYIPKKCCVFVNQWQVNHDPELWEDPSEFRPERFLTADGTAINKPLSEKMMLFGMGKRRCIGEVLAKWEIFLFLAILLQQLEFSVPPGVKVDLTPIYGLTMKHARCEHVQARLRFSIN
assay-overview: Cytochrome P450 assay (Gentest Kit), CYP1A2
measurement-conditions: human recombinant isoenzyme

Query: Record request: IC50 value, item CS(=O)(=O)O.C[C@H](NCc1ccc(OCc2cccc(F)c2)cc1)C(N)=O [Safinamide methanesulfonate]
Response: > 40 µM

Query: Please do the same for C[C@H](NCc1ccc(OCc2ccccc2F)c(Cc2ccccc2F)c1)C(N)=O [Impurity IId, methanesulfonate] as well.
Response: > 40 µM

Query: Please do the same for C[C@H](NCc1ccc(OCc2cccc(F)c2)c(Cc2cccc(F)c2)c1)C(N)=O [Impurity IIc, methanesulfonate] as well.
Response: > 40 µM

Query: Please do the same for CS(=O)(=O)O.C[C@H](NCc1ccc(OCc2ccccc2F)cc1)C(N)=O [Ralfinamide methanesulfonate] as well.
Response: > 40 µM

----------
assayed-system: HERG channel (Homo sapiens)
Sequence (Q12809 whole entry): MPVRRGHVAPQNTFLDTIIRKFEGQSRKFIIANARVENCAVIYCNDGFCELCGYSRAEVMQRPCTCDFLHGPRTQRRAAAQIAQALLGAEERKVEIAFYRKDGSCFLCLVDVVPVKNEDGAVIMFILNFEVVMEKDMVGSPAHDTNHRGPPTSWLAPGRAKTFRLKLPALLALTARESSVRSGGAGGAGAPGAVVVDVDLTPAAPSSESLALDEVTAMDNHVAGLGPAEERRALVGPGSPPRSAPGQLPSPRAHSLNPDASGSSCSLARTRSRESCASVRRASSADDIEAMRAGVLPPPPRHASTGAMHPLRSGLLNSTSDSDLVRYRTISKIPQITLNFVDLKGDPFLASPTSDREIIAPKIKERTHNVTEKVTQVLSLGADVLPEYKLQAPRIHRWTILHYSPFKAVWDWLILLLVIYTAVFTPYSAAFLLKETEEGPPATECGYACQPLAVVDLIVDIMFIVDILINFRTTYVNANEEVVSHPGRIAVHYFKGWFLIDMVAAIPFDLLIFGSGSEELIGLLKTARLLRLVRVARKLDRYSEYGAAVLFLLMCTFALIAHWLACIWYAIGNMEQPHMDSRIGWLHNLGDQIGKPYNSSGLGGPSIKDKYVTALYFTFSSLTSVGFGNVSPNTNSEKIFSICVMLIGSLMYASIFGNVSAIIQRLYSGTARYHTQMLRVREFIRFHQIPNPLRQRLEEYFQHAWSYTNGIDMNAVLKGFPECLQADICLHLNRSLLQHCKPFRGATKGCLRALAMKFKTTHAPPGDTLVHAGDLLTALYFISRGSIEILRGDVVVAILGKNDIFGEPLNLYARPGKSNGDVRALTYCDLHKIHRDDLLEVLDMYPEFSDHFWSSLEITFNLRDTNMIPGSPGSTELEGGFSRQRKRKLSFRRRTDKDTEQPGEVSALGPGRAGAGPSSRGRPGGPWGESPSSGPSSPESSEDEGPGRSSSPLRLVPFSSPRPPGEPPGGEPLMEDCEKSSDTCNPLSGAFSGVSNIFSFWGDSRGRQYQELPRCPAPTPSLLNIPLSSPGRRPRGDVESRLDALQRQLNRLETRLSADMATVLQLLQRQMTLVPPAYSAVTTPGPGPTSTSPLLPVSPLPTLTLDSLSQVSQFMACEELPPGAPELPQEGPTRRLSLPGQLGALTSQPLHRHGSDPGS
assay-overview: HERG current in transfected CHO cell lines
reported-property: IC50 (µM)
Response body: numeric value in µM, unit text excluded.

Query: What IC50 appears in the records for this molecule with HERG channel (Homo sapiens)? C[C@H](NCc1ccc(OCc2ccccc2F)c(Cc2ccccc2F)c1)C(N)=O [Impurity IId, methanesulfonate]
Response: 2.66

Query: Please do the same for C[C@H](NCc1ccc(OCc2cccc(F)c2)c(Cc2cccc(F)c2)c1)C(N)=O [Impurity IIc, methanesulfonate] as well.
Response: 1.2

Query: Please do the same for CS(=O)(=O)O.C[C@H](NCc1ccc(OCc2cccc(F)c2)cc1)C(N)=O [Safinamide methanesulfonate] as well.
Response: 27

Query: Please do the same for CS(=O)(=O)O.C[C@H](NCc1ccc(OCc2ccccc2F)cc1)C(N)=O [Ralfinamide methanesulfonate] as well.
Response: 18

----------
assayed-system: CYP2C9 (Homo sapiens, UniProt P11712)
Construct: purchased Gentest
Sequence (P11712 whole entry): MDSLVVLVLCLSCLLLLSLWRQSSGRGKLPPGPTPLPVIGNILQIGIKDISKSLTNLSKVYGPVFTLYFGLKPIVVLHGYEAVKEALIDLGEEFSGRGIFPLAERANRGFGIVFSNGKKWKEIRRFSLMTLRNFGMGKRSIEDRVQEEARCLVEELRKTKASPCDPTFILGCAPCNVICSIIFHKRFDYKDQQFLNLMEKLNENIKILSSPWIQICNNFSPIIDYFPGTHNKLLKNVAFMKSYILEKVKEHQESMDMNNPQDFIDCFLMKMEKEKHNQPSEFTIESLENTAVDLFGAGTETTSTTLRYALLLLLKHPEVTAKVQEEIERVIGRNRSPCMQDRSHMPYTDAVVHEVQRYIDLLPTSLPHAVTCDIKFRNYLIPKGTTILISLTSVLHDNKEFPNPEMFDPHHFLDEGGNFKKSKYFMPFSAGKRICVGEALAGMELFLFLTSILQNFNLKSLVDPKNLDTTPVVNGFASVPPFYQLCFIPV
assay-overview: Cytochrome P450 assay (Gentest Kit), CYP2C9
Type: in vitro ADME
measurement-conditions: human recombinant isoenzyme
Hi there, I'd appreciate the recorded pIC50 for every entry that follows.
// pIC50: -log10(molar conc.)

Query: Record request: pIC50 value, item C[C@H](NCc1ccc(OCc2ccccc2F)c(Cc2ccccc2F)c1)C(N)=O [Impurity IId, methanesulfonate]
Response: 5.10

Query: Please do the same for C[C@H](NCc1ccc(OCc2cccc(F)c2)c(Cc2cccc(F)c2)c1)C(N)=O [Impurity IIc, methanesulfonate] as well.
Response: 5.14

----------
Hi there, I'd appreciate the recorded IC50 at 24 h for every entry that follows.
assay-overview: Cytotoxicity assay in human neuroblastoma cell line SH-SY-5Y
Assay type: cell-based
measurement-conditions: SH-SY-5Y neuroblastoma cells, 24 hours incubation, Alamar Blue, concentration inducing 50% of mortality
Response body: numeric value in µM, unit text excluded.

Query: Record request: IC50 at 24 h value, item C[C@H](NCc1ccc(OCc2ccccc2F)c(Cc2ccccc2F)c1)C(N)=O [Impurity IId, methanesulfonate]
Response: 15

Query: Please do the same for C[C@H](NCc1ccc(OCc2cccc(F)c2)c(Cc2cccc(F)c2)c1)C(N)=O [Impurity IIc, methanesulfonate] as well.
Response: 6.7

Query: Please do the same for CS(=O)(=O)O.C[C@H](NCc1ccc(OCc2cccc(F)c2)cc1)C(N)=O [Safinamide methanesulfonate] as well.
Response: 248
